Data provenance: patent US8518958B2

- SUBJECT_OF_TEST: B-Raf delta1-415 (Homo sapiens, UniProt P15056)
- Sequence (P15056 416-766): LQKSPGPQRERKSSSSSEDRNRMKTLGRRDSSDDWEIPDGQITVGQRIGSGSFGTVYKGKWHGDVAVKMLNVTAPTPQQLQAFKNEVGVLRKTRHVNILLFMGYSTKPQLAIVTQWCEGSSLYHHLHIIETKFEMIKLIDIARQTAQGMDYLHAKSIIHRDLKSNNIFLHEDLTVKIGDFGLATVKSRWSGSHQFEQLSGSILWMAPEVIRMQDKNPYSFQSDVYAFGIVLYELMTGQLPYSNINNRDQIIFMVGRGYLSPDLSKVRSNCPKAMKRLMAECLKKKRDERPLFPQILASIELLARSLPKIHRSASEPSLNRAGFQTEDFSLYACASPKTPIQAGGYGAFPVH
- EXPERIMENT: B-Raf kinase inhibition (MAPH filter plate, 33P-ATP, MEK1 substrate)
- CONDITIONS_USED: read-out: Biochemical IC50 B-Raf
- Excerpt: We characterized the in vitro inhibitory activity against protein kinases of compounds of the present invention by determining their IC50 values (see Table 2). Kinase: B-Raf delta1-415 (e.g., Upstate Cat. No. 14-530) Reaction Temperature: room temperature Assay Plate: 96 well U bottom plate (Greiner, 650161) MultiScreen-PH Plate: 96 well MAPH Filter Plates (Millipore, MAPHNOB50) […] Kinase: Kinase conc. yielding 50% substrate turnover as determined in titration experiment. […]
TEST_READOUT: IC50

Below are worked cases with known answers.
COMPOUND | IC50
COn1c(=O)c(-c2ccccc2Cl)cc2cnc(Nc3cccc(S(N)(=O)=O)c3)nc21 [Compound 6] | < 0.5 µM
COn1c(=O)c(-c2c(Cl)cccc2Cl)cc2cnc(Nc3ccc(CC(=O)NCCN4CCCC4)cc3)nc21 [Compound 115] | < 0.5 µM
COn1c(=O)c(-c2c(Cl)cccc2Cl)cc2cnc(Nc3ccc(CNCCO)cc3)nc21 [Compound 178] | < 0.5 µM

Q. Report IC50 under test system B-Raf delta1-415 (Homo sapiens, UniProt P15056) for O=c1c(-c2ccccc2Cl)cc2cnc(Nc3ccccc3)nc2n1OCC1CC1 [Compound 49] .
A. > 1 µM

Q. Report IC50 under test system B-Raf delta1-415 (Homo sapiens, UniProt P15056) for COn1c(=O)c(-c2c(Cl)cccc2Cl)cc2cnc(Nc3ccc(C)cc3)nc21 [Compound 150] .
A. > 1 µM

Q. Report IC50 under test system B-Raf delta1-415 (Homo sapiens, UniProt P15056) for COn1c(=O)c(-c2ccc(Cl)cc2Cl)cc2cnc(Nc3ccc(OCCN(C)C)cc3)nc21 [Compound 16] .
A. < 0.5 µM

Q. Report IC50 under test system B-Raf delta1-415 (Homo sapiens, UniProt P15056) for COn1c(=O)c(-c2c(F)cccc2Cl)cc2cnc(Nc3ccc(N4CCN(S(C)(=O)=O)CC4)cc3)nc21 [Compound 223] .
A. < 0.1 µM

Q. Report IC50 under test system B-Raf delta1-415 (Homo sapiens, UniProt P15056) for COn1c(=O)c(-c2c(Cl)cccc2Cl)cc2cnc(Nc3cccc(-c4nnn[nH]4)c3)nc21 [Compound 130] .
A. < 0.5 µM
